- ASSAY INFO: folding enthalpy; higher = less favourable; fluorescence melt of hairpins on a sequencing array, two-state fit
- EXPERIMENTAL SETUP: sodium 0.088 M
Label true (1) when folding enthalpy is at or above -40 kcal/mol; otherwise label false (0).

> print(dat)
                           sequence.text  assigned.class
1    GTCATACGAAAGTAGAC (((.(((....))))))        true (1)
2  GACAACCGAAAGGTCGTC (((.(((....))).)))        true (1)
3      GATCCAGCGATGGATC ((((((....))))))       false (0)
4  GTCGACCGAAAGGTAGAC (((.(((....))).)))        true (1)
5  GAGAGTGCGAAAGCACTC (((..(((....))))))        true (1)
